- Tested on: MDA-MB-231
- PROTOCOL: Cell cycle arrest in human MDA-MB-231 cells assessed as accumulation at S phase at IC50 concentration after 48 hrs by flow cytometry (reference value: 38.8%)
- Assay type: functional
MEASURED PARAMETER: Activity (%)
Give bare numbers, in %.

Some solved entries appear below for comparison.
- SMILES: "C[C@]12CCC(=O)C(O)=C1CC[C@@H]1[C@@H]2CC[C@]2(C)C(=O)CC[C@@H]12"
  SYSTEM TESTED: "MDA-MB-231"
  MEASURED PARAMETER: "Activity"
  DATA VALUE: 18.1
- SMILES: "C[C@]12CC[C@H](O)[C@H](O)C1=CC[C@@H]1[C@@H]2CC[C@@]2(C)[C@H]1CC[C@@]2(O)Cc1ccccn1"
  SYSTEM TESTED: "MDA-MB-231"
  MEASURED PARAMETER: "Activity"
  DATA VALUE: 34.7

Consider the following items and state reported Activity for each.
1. C[C@]12CC[C@H](O)C=C1CC[C@@H]1[C@@H]2CC[C@]2(C)/C(=C/c3ccccn3)CC[C@@H]12
2. C[C@]12CC[C@H]3[C@@H](C[C@@H]4O[C@@]45C[C@@H](O)CC[C@]35C)[C@@H]1CC[C@@]2(O)Cc1cccc[n+]1[O-]

Key:
28.4
43.7
